Experimental target: hMC2 receptor (crude hMC2R membranes from CRE-bla-CHO-K1 cells stably expressing hMC2 receptor and hMRAP accessory protein) (Homo sapiens, UniProt Q01718)
Sequence (Q01718 whole entry): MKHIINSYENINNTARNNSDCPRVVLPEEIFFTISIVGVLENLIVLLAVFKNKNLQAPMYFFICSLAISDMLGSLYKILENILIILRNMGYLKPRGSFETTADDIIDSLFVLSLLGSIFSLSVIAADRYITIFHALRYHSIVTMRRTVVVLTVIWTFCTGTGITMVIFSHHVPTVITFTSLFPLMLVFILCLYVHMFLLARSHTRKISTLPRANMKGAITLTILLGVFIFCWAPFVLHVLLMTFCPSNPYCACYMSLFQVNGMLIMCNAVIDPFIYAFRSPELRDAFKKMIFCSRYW
Sequence (Q8TCY5 whole entry partner): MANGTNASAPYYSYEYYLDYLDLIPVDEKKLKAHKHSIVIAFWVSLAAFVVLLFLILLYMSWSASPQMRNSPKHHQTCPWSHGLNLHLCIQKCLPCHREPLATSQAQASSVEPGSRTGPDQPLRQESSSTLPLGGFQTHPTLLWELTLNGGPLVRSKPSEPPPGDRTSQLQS
pKi: −log10 of the molar value.
Each entry below lists one item and its recorded pKi value.

Query :: What does the record list as pKi for COc1ncccc1-c1ncc(C2(C(=O)NCCN(C)C)CCN(c3ccc(C(F)(F)F)cc3Cl)CC2)cc1F ?
Result :: > 8.00

Query :: Also CN1CC[C@@H](NC(=O)C2(c3ccc(-c4cccc5ccoc45)nc3)CCN(c3ccc(C(F)(F)F)cc3C#N)CC2)C1 ?
Result :: 7.00 to 8.00

Query :: Query CCOc1ncccc1-c1ccc(C2(C(=O)N[C@@H]3CCN(C)C3)CCN(c3ccc(C(F)(F)F)cc3C)CC2)cc1 next
Result :: 7.00 to 8.00

Query :: What do we get for COc1ccccc1-c1ncc(C2(C(=O)NCCN(C)C)CCN(c3ccc(C(F)(F)F)cc3C#N)CC2)cc1F ?
Result :: > 8.00

Query :: Repeat with CNCCNC(=O)C1(c2ccc(-c3ccccc3OC)nc2)CCN(c2ccc(C(F)(F)F)cc2F)CC1
Result :: > 8.00

Query :: Same question for COCc1ccccc1-c1ccc(C2(C(=O)N[C@@H]3CCN(C)C3)CCN(c3ccc(C(F)(F)F)cc3C#N)CC2)cn1 please.
Result :: > 8.00

Query :: Also need CCOc1ccccc1-c1ccc(C2(NC(=O)C3CN(C)C3)CCN(c3ccc(C(F)(F)F)cc3C#N)CC2)cn1 , thanks.
Result :: > 8.00

###

Experimental target: hMC2 receptor (crude hMC2R membranes from CRE-bla-CHO-K1 cells stably expressing hMC2 receptor and hMRAP accessory protein) (Homo sapiens, UniProt Q01718)
Construct: crude membrane fractions
Method notes: hMC2 membrane binding assay ([125I]ACTH (1-39) Tyr23, SPA)
Condition info: displacement of 0.2 nM [125I]ACTH (1-39) Tyr23 from hMC2R membranes, 1.5 hours at room temperature; read-out: MC2R binding potency
pKi: −log10 of the molar value.
Quick reference: pKi of the listed items.

Molecule	Obs value
CN1CC(F)(F)C[C@@H]1CNC(=O)C1(c2ccc(-c3cccn3C)nc2)CCN(c2ccc(C(F)(F)F)cc2C#N)CC1 [Compound 1-280]	6.00 to 7.00
COc1ccccc1-c1ccc(C2(C(=O)NC[C@H]3COCCN3C)CCN(c3ccc(C(F)(F)F)cc3C#N)CC2)cn1 [Compound 1-328]	7.00 to 8.00
CCOc1ccccc1-c1ccc(C2(C(=O)NC3CN(C)C3)CCN(c3ccc(C(F)(F)F)cc3C#N)CC2)cn1 [Compound 1-76]	> 8.00
CCOc1ncccc1-c1ccc(C2(NC(=O)CN(C)C)CCN(c3ccc(C(F)(F)F)cc3C#N)CC2)cn1 [Compound 2-26]	> 8.00

Query :: Value lookup for pKi; key = CNCCNC(=O)C1(c2ccc(-c3ccccc3OC)nc2)CCN(c2ccc(C(F)(F)F)cc2Cl)CC1 [Compound 1-257]
Result :: > 8.00

Query :: Follow-up item: COc1c(F)cccc1-c1ccc(C2(C(=O)N[C@@H]3CCN(C)C3)CCN(c3ccc(C(F)(F)F)cc3C#N)CC2)cn1 [Compound 1-82]
Result :: > 8.00

Query :: Next entry: COc1cccnc1-c1ccc(C2(C(=O)N[C@H]3CCN(C)C3)CCN(c3ccc(C(F)(F)F)cc3C#N)CC2)cn1 [Compound 1-178]
Result :: 7.00 to 8.00

Query :: And what about the molecule CCOc1ncccc1-c1ccc(C2(C(=O)NC3CN(C)C3)CCN(c3ccc(C(F)(F)F)cc3C#N)CC2)cn1 [Compound 1-19] ?
Result :: > 8.00

Query :: What do we get for CCOc1ccccc1-c1ccc(C2(NC(=O)[C@H]3CCN(C)C3)CCN(c3ccc(Cl)cc3C#N)CC2)cn1 [Compound 2-28] ?
Result :: > 8.00

Query :: And then CCOc1ccccc1-c1ccc(C2(C(=O)NCCN(C)C)CCN(c3ccc(C(F)(F)F)cc3Cl)CC2)cn1 [Compound 1-228] , what is it?
Result :: > 8.00

Query :: Similarly, Cn1cccc1-c1ccc(C2(C(=O)N[C@H]3C[C@H](N(C)C)C3)CCN(c3ccc(C(F)(F)F)cc3C#N)CC2)cn1 [Compound 1-240] ?
Result :: 7.00 to 8.00

###

A collection of compounds and their measured pKi
Experimental target: hMC2 receptor (crude hMC2R membranes from CRE-bla-CHO-K1 cells stably expressing hMC2 receptor and hMRAP accessory protein) (Homo sapiens)
pKi: −log10 of the molar value.

CCOc1ncccc1-c1ccc(C2(C(=O)NC[C@@H](CO)N(C)C)CCN(c3ccc(C(F)(F)F)cc3C#N)CC2)cn1 > 8.00

Query :: Bench note: what pKi did CCOc1ncccc1-c1ccc(C2(NC(=O)N[C@@H]3CCN(C)C3)CCN(c3ccc(C(F)(F)F)cc3C#N)CC2)cn1 show?
Result :: > 8.00

Query :: Would you mind doing Cn1cccc1-c1ccc(C2(C(=O)N[C@H]3C[C@@H](N)C3)CCN(c3ccc(C(F)(F)F)cc3C#N)CC2)cn1 as well?
Result :: 7.00 to 8.00

###

Experimental target: hMC2 receptor (crude hMC2R membranes from CRE-bla-CHO-K1 cells stably expressing hMC2 receptor and hMRAP accessory protein) (Homo sapiens)
Reported Ki values are given for each entry in this list.

# annotated cases, reported Ki shown
Compound	Ki
CCOc1ncccc1-c1ccc(C2(C(=O)N[C@H]3CCNC3)CCN(c3ccc(C(F)(F)F)cc3C#N)CC2)cn1 [Compound 1-12]	< 10 nM
CCc1ccccc1-c1ccc(C2(C(=O)N[C@@H]3CCN(C)C3)CCN(c3ccc(C(F)(F)F)cc3C#N)CC2)cn1 [Compound 1-60]	< 10 nM
CNCCNC(=O)C1(c2ccc(-c3cccnc3OC)nc2)CCN(c2ccc(C(F)(F)F)cc2F)CC1 [Compound 1-272]	< 10 nM
CCOc1ccccc1-c1ccc(C2(C(=O)N[C@H]3CCN(C)C3)CCN(c3ccc(C(F)(F)F)cc3Cl)CC2)cn1 [Compound 1-97]	< 10 nM

Query :: // lookup Ki for CCOc1c(F)cccc1-c1ccc(C2(C(=O)N[C@@H]3CCN(C)C3)CCN(c3ccc(C(F)(F)F)cc3C#N)CC2)cn1 [Compound 1-72]
Result :: < 10 nM

Query :: Further, for Cn1cccc1-c1ccc(C2(C(=O)N[C@@H]3CN4CCC3CC4)CCN(c3ccc(C(F)(F)F)cc3C#N)CC2)cn1 [Compound 1-187] ?
Result :: < 10 nM

Query :: What do you get for CN1[C@@H]2CC[C@H]1[C@@H](NC(=O)C1(c3ccc(-c4cccn4C)nc3)CCN(c3ccc(C(F)(F)F)cc3C#N)CC1)C2 (racemic) [Compound 1-251] ?
Result :: 10 to 100 nM

###

Experimental target: hMC2 receptor (crude hMC2R membranes from CRE-bla-CHO-K1 cells stably expressing hMC2 receptor and hMRAP accessory protein) (Homo sapiens, UniProt Q01718)
Construct: crude membrane fractions
Method notes: hMC2 membrane binding assay ([125I]ACTH (1-39) Tyr23, SPA)
Condition info: displacement of 0.2 nM [125I]ACTH (1-39) Tyr23 from hMC2R membranes, 1.5 hours at room temperature; read-out: MC2R binding potency
pKi: −log10 of the molar value.
Measured parameter: pKi

CN1CC[C@@H](NC(=O)C2(c3ccc(-c4cc(F)cc(F)c4)nc3)CCN(c3ccc(C(F)(F)F)cc3C#N)CC2)C1 7.00 to 8.00
Cc1cccnc1-c1ccc(C2(C(=O)N[C@@H]3CCN(C)C3)CCN(c3ccc(C(F)(F)F)cc3C#N)CC2)cn1 6.00 to 7.00
CCOc1ccccc1-c1ccc(C2(NC(=O)CCN(C)C)CCN(c3ccc(Cl)cc3C#N)CC2)cn1 > 8.00
COc1sccc1-c1ccc(C2(C(=O)N[C@H]3CCN(C)C3)CCN(c3ccc(C(F)(F)F)cc3C#N)CC2)cn1 > 8.00
COc1ccccc1-c1ccc(C2(C(=O)N[C@@H]3CNC[C@H]3F)CCN(c3ccc(C(F)(F)F)cc3C#N)CC2)cn1 > 8.00
CCOc1ncccc1-c1ccc(C2(C(=O)N[C@H]3CCN(C)C3)CCN(c3ccc(C#N)cc3C#N)CC2)cn1 > 8.00
CCOc1ncccc1-c1ccc(C2(C(=O)N[C@H]3CCN(C)C3)CCN(c3ccc(Cl)cc3C#N)CC2)cn1 > 8.00
CN1CC[C@@H](NC(=O)C2(c3ccc(-c4ccn(C)c4)nc3)CCN(c3ccc(C(F)(F)F)cc3C#N)CC2)C1 7.00 to 8.00
COc1ccccc1-c1ccc(C2(C(=O)N[C@H]3CCN(C)C3)CCN(c3ccc(C(F)(F)F)cc3C#N)CC2)nn1 > 8.00
CCOc1ccccc1-c1ncc(C2(C(=O)NCCN(C)C)CCN(c3ccc(C(F)(F)F)cc3Cl)CC2)cc1F > 8.00

Query :: Any idea what its pKi is? The compound is COc1ncccc1-c1ccc(C2(C(=O)NCCN(C)C)CCN(c3ccc(C(F)(F)F)cc3Cl)CC2)cn1
Result :: > 8.00

Query :: Next: CCOc1ncccc1-c1ccc(C2(C(=O)N[C@@H](C)CN(C)C)CCN(c3ccc(C(F)(F)F)cc3F)CC2)cn1
Result :: > 8.00

Query :: Please answer likewise for CN(C)CC1(NC(=O)C2(c3ccc(-c4cccn4C)nc3)CCN(c3ccc(C(F)(F)F)cc3C#N)CC2)COC1
Result :: > 8.00

Query :: # repeat for Cn1cccc1-c1ccc(C2(C(=O)NCCCN)CCN(c3ccc(C(F)(F)F)cc3C#N)CC2)cn1
Result :: 7.00 to 8.00
